Data credit: patent US6706664B1

test system: corn; experiment: Soil treatment test for upland field; type: in vivo; design: key: 0: normal development; 1: Less damaged; 2: Slightly damaged; 3: Moderately damaged; 4: Severely damaged; 5: All killed; settings: 500 g/ha, glass house 25° C., 3 weeks
valueType: Effects Corn

# molecule, recordedValue
rows = [
    ("CCC(Oc1ccc(F)c(C(F)(F)F)c1)c1nc2cc(Br)ccc2o1 (stereo not drawn)", 2),
    ("CCCC(Oc1ccc(F)c(C(F)(F)F)c1)c1nc2cc(F)c(Cl)cc2o1 (stereo not drawn)", 1),
    ("CCCC(Oc1ccc(F)c(C(F)(F)F)c1)c1nc2cc(S(C)(=O)=O)c(C)cc2o1 (stereo not drawn)", 0),
    ("CCC(Oc1ccc(F)c(C(F)(F)F)c1)c1nc2cc(F)ccc2o1 (stereo not drawn)", 0),
    ("CCC(Oc1ccc(Cl)c(C(F)(F)F)c1)c1nc2cc(C#N)c(Cl)cc2o1 (stereo not drawn)", 2),
    ("CCC(Oc1ccc(Cl)c(C(F)(F)F)c1)c1nc2cc(F)ccc2o1 (stereo not drawn)", 0),
    ("CCC(Oc1cccc(C(F)(F)F)c1)c1nc2cc(S(C)(=O)=O)ccc2o1 (stereo not drawn)", 0),
    ("CCC(Oc1cccc(C(F)(F)F)c1)c1nc2cc(Cl)c(C)cc2o1 (stereo not drawn)", 1),
    ("CCCC(Oc1ccc(F)c(C(F)(F)F)c1)c1nc2cc(C#N)c(C#N)cc2o1 (stereo not drawn)", 0),
    ("CCC(Oc1ccc(F)c(C(F)(F)F)c1)c1nc2ccc(C(F)(F)F)cc2o1 (stereo not drawn)", 1),
    ("CCC(Oc1ccc(F)c(C(F)(F)F)c1)c1nc2cc(F)c(F)cc2o1 (stereo not drawn)", 2),
    ("CCC(Oc1cccc(C(F)(F)F)c1)c1nc2cc(C(F)(F)F)ccc2o1 (stereo not drawn)", 2),
    ("CCC(Oc1cccc(OC(F)(F)F)c1)c1nc2cc(C#N)ccc2o1 (stereo not drawn)", 2),
    ("CCC(Oc1ccc(F)c(C(F)(F)F)c1)c1nc2cc(S(C)(=O)=O)c(C)cc2o1 (stereo not drawn)", 0),
    ("CCC(Oc1ccc(F)c(C(F)(F)F)c1)c1nc2cc(OC)ccc2o1 (stereo not drawn)", 2),
    ("CCC(Oc1ccc(F)c(C(F)(F)F)c1)c1nc2cc(C#N)c(C#N)cc2o1 (stereo not drawn)", 0),
    ("CCC(Oc1ccc(F)c(C(F)(F)F)c1)c1nc2cc([N+](=O)[O-])ccc2o1 (stereo not drawn)", 2),
    ("CCC(Oc1ccc(F)c(C(F)(F)F)c1)c1nc2cc(S(C)(=O)=O)ccc2o1 (stereo not drawn)", 0),
    ("CCCC(Oc1ccc(F)c(C(F)(F)F)c1)c1nc2cc(Cl)ccc2o1 (stereo not drawn)", 1),
    ("CCC(Oc1cccc(C(F)(F)F)c1)c1nc2cc(Br)ccc2o1 (stereo not drawn)", 0),
    ("CCCC(Oc1cccc(C(F)(F)F)c1)c1nc2cc(Cl)ccc2o1 (stereo not drawn)", 1),
]

* * *

Tested on: solgum
Experiment: Foliar spread test for upland field
Type: in vivo
Design: key: 0: normal development; 1: Less damaged; 2: Slightly damaged; 3: Moderately damaged; 4: Severely damaged; 5: All killed
Details: foliar spray 500 ppm, 3 weeks, rank vs non-treated
Procedure: (0: normal development, 1: Less damaged, 2: Slightly damaged, 3: Moderately damaged, 4: Severely damaged, 5: All killed). […] The herbicidal effects were evaluated according to the evaluation method described in the above (1).

# compound, Effects Solgum
records = [
    ("CCC(Oc1cccc(OC(F)(F)F)c1)c1nc2cc(Cl)ccc2o1 (centres unmarked) [Compound 447]", 3),
    ("CCC(Oc1cccc(OC(F)(F)F)c1)c1nc2cc(C#N)c(C#N)cc2o1 (centres unmarked) [Compound 527]", 1),
    ("CCC(Oc1cccc(S(C)(=O)=O)c1)c1nc2cc(S(C)(=O)=O)ccc2o1 (centres unmarked) [Compound 513]", 3),
    ("CCCC(Oc1cccc(C(F)(F)F)c1)c1nc2cc(S(C)(=O)=O)c(C)cc2o1 (centres unmarked) [Compound 489]", 1),
    ("CCCC(Oc1cccc(C(F)(F)F)c1)c1nc2cc(Cl)ccc2o1 (centres unmarked) [Compound 142]", 2),
    ("CCC(Oc1ccc(F)c(C(F)(F)F)c1)c1nc2cc(I)ccc2o1 (centres unmarked) [Compound 171]", 2),
    ("CCC(Oc1cccc(C(F)(F)F)c1)c1nc2cc(C#N)c(Cl)cc2o1 (centres unmarked) [Compound 529]", 3),
    ("CCCC(Oc1cccc(C(F)(F)F)c1)c1nc2cc(F)c(Cl)cc2o1 (centres unmarked) [Compound 497]", 1),
    ("CCCCC(Oc1ccc(F)c(C(F)(F)F)c1)c1nc2cc(Cl)ccc2o1 (centres unmarked) [Compound 476]", 0),
    ("CCC(Oc1cccc(C(F)(F)F)c1)c1nc2cc(F)c(C(F)(F)F)cc2o1 (centres unmarked) [Compound 471]", 3),
    ("CCCC(Oc1ccc(F)c(C(F)(F)F)c1)c1nc2cc(F)c(Cl)cc2o1 (centres unmarked) [Compound 494]", 1),
]
